Measured values drawn from patent US20100087466A1 for this set.

target: DnaK (Escherichia coli); experiment: DnaK Inhibition Assay (DnaK induced refolding of denatured firefly luciferase); format: biochemical, E. coli; settings: DnaK 200 nM, DnaJ 100 nM, GrpE 400 nM, read-out: DnaK IC50(μg/ml) (converted)
Sequence (P0A6Y8 2-638): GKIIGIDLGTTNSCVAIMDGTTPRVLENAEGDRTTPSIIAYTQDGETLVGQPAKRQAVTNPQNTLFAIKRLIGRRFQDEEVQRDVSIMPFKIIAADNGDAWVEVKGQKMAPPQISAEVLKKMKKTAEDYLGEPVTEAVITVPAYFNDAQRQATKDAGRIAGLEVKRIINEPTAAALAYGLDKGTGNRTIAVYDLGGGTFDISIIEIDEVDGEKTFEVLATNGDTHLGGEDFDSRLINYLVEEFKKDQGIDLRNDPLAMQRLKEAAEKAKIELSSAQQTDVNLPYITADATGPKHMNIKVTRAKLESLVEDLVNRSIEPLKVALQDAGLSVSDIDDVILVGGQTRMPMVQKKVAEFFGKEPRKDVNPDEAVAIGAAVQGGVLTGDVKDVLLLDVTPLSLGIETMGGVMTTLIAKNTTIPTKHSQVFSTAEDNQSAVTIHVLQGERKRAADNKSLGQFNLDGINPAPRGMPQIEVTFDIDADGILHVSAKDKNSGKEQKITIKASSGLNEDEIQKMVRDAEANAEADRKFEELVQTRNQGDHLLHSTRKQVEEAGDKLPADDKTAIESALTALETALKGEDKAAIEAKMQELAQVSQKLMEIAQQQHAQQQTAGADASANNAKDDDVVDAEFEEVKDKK
Structures can show the parent of a compound that is named as a salt. Non-standard residues stand in square brackets, D forms with d. Residues, ends and D or L forms follow the SMILES beside them. *: point of attachment. NH(CH2)3Ph = c1ccc(CCCN*)cc1; Octanoyl = CCCCCCCC(=O)*; Orn = NCCC[C@H](N)C(=O)O; Piperidide = C1CCN(*)CC1; Bn = c1ccc(C*)cc1
A collection of compounds and their measured IC50
The reply should contain only the number, in µM.

Example entries begin here.
>>> recorded_value("CCCCCCCC(=O)N[C@H](Cc1ccc(OCc2ccccc2)cc1)C(=O)N[C@@H](CC(C)C)C(=O)N1CCC[C@H]1C(=O)N[C@H](CCCNC(=N)N)C(=O)OC [Structure 25] (Octanoyl-[dY](Bn)LP[dR]-OMe)")
23.1
>>> recorded_value("CC(=O)N[C@@H](Cc1ccc(OCc2ccccc2)cc1)C(=O)N[C@@H](CC(C)C)C(=O)N1CCC[C@H]1C(=O)N[C@@H](CCCN)C(=O)N1CCC[C@H]1C(=O)NCCCc1ccccc1 [Structure 20, Ac-Tyr(Bzl)-Leu-Pro-Orn-Pro-NH(CH2)3Ph] (Ac-Y(Bn)LP[Orn]P-{NH(CH2)3Ph})")
20
>>> recorded_value("COC(=O)[C@@H]1CCCN1C(=O)[C@H](CC(C)C)NC(=O)[C@H](Cc1ccc(OCc2ccccc2)cc1)NC(C)=O [Structure 2, Ac-Tyr(Bzl)-Leu-Pro-OMe] (Ac-Tyr(Bn)-Leu-Pro-OMe)")
219

Let's switch to this compound now.
Task: Which IC50 value belongs to CC(=O)N[C@@H](Cc1ccc(O)cc1)C(=O)N[C@@H](CC(C)C)C(=O)N1CCC[C@H]1C(=O)N[C@@H](CCCNC(=N)N)C(=O)N1CCCCC1 [Structure 4, Ac-Tyr-Leu-Pro-Arg-N(CH2)5.TFA] (Ac-YLPR-Piperidide) ?
Output: 6.09
